- Test Method Notes: inhibitors of cytokine-induced beta cell apoptosis, primary screen, luminescence (AID 435005);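 also: 0% = cytokine-treated negative control wells and 100% = positive control rescue; higher means more ATP so stronger rescue from cytokine killing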
- Test Settings: INS-1E cytokine-induced death, ATP luminescence, 48 h; percent of positive-control rescue, neutral wells zero; concentration not given here
The campaign covered roughly 300,000 compounds. About 2,400 (0.8%) were called active.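 The calls were made as follows: active = Every replicate reaches about 75%, or at least half do and their mean reaches it too (limit read from the data); inconclusive = At least half of replicates reach the limit but their mean does not; inactive = Under half of replicates reach the limit.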 The sample holds actives, similar compounds and a random draw of the others, so the mix is not that of the screen.
Labels: YES for active, NO for inactive

| Molecule | Group |
| --- | --- |
| Cc1cc(C(=O)NNC(=O)c2ccccc2O)c(C)o1 | NO |
| COc1cccc(/C=N/Nc2ncc(C(F)(F)F)cc2Cl)c1O | YES |
| CC(C)(C)OC(=O)N/N=C/c1cn(-c2ccccc2)nc1-c1cccnc1 | NO |
| Cc1ccc(NC(=O)Cn2cnc3c(OCc4ccccc4)ncnc32)cc1C | NO |
| CC(C)n1cnc2c(NCc3ccccc3)cc(N[C@@H](CO)Cc3ccccc3)cc21 | YES |
| N/C(=N\OC(=O)Nc1ccc(Cl)c(Cl)c1)c1ncc(C(F)(F)F)cc1Cl | NO |
| Cc1ccc2c(c1)NC(=O)[C@@]1(C)[C@@H](c3ccccc3)[C@H]3COc4ccc(Cl)cc4[C@@H]3N1C2=O | NO |
| CCC(CO)Oc1cc(NCc2ccccc2)c2ncn(C3CCCC3)c2c1 (configuration not stated) | NO |
| Cc1ccc(C(=O)Nc2ccccc2-c2ccccc2)cc1S(=O)(=O)Nc1ccccc1 | NO |
| Cc1ccc(-c2nn(-c3ccccc3)cc2/C=N/NC(=O)c2ccc3c(c2)OCO3)cc1 | YES |
| COc1ccc(CCNC(=O)COC(=O)Cc2ccccc2F)cc1 | NO |
| C/C(=N\NC(=O)c1ccccc1C)c1ccc(N2CCOCC2)cc1 | NO |
| CCn1nnc2cc(C(=O)Nc3ccc(C(=O)OC(C)C)cc3)ccc21 | NO |
| O=C(O)c1ccc(N/N=C/c2cn(-c3ccccc3)nc2-c2cccs2)cc1 | NO |
| Cc1ccc(-n2nc3cc(C)c(NC(=O)c4cccnc4)cc3n2)cc1 | NO |
| CCOC(=O)c1ccc(-c2ccc(C(=O)Nc3cccnc3)o2)cc1 | NO |
| Cc1cc(NS(=O)(=O)c2ccc(NC(=O)c3cccnc3)cc2)nc(C)n1 | NO |
| COc1ccccc1CNC(=O)COC(=O)c1cccs1 | NO |
| O=C(Cc1ccccc1)Nc1ccc(NC(=O)c2cccnc2)cc1 | NO |
| Cc1cc2nc(-c3ccc(NC(=O)c4cccnc4)cc3)oc2cc1C | YES |
| C/C(=N\NC(=O)c1ccoc1C)c1ccccc1O | YES |
| CN(CC(=O)Nc1ccc(OC(F)F)cc1)S(=O)(=O)/C=C/c1ccccc1 | NO |

====

- Test Method Notes: inhibitors of cytokine-induced beta cell apoptosis, primary screen, luminescence (AID 435005);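 also: 0% = cytokine-treated negative control wells and 100% = positive control rescue; higher means more ATP so stronger rescue from cytokine killing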
- Test Settings: INS-1E cytokine-induced death, ATP luminescence, 48 h; active compounds read high; percent of positive-control rescue, neutral wells zero; concentration not given here
The whole screen tested about 300,000 compounds, of which about 2,400 (0.8%) were called active. The sample as a whole holds a higher share of actives than the screen did.
Experimental Readout: protection from apoptosis (%)

| Compound | Experimental Readout | Reading Unit | Numeric Value |
| --- | --- | --- | --- |
| Cc1ccc(N2C(=O)N3[C@@H]4c5ccccc5OC[C@@H]4[C@@H](c4ccccc4)[C@@]3(C)C2=O)cc1 | protection from apoptosis | % | -1.96 |
| CCOc1ccc(NC(=O)c2ccccc2NS(C)(=O)=O)cc1 | protection from apoptosis | % | 0.287 |
| COc1cc(NC(=O)c2ccccc2NS(=O)(=O)c2ccc(Cl)s2)cc(OC)c1 | protection from apoptosis | % | 111 |
| O=C(NCCc1ccccc1)C1CCN(S(=O)(=O)c2ccc(Br)s2)CC1 | protection from apoptosis | % | 2.68 |
| O=C(Nc1cc(S(=O)(=O)N2CCCCC2)ccc1Cl)C1COc2ccccc2O1 (stereo not given) | protection from apoptosis | % | 3.53 |
